molecular target: HIV-1 Protease (Human immunodeficiency virus type 1 group M subtype B); construct: HIV-1 Protease; experiment: biochemical; details: read-out: Fluorescence Assay IC50 (converted)
metric: IC50 (nM)
Lab book: enter the figure in nM, no units written.

Below, 2 molecules whose answers are already recorded.
molecule | IC50 / nM
CC(C)[C@H]1[C@@H](OC(=O)N[C@@H](CSc2ccccc2)[C@H](O)CN2C[C@H]3CCS[C@H]3C[C@H]2C(=O)NC(C)(C)C)CCS1(=O)=O [10B-51 mg sample] | 0.95
CC(=O)N[C@H](CS(=O)(=O)c1cccc2cccnc12)C(=O)N[C@@H](Cc1ccccc1)[C@H](O)CN1C[C@H]2CCS[C@H]2C[C@H]1C(=O)NC(C)(C)C [Example 25] | 0.239

Could you now look at the following molecule, please?
Request the reported IC50 associated with CC(C)(C)NC(=O)[C@@H]1C[C@@H]2SCC[C@@H]2CN1C[C@@H](O)[C@H](Cc1ccccc1)NC(=O)[C@@H](CS(=O)(=O)c1cccc2cccnc12)NS(C)(=O)=O [Example 26]
0.389

* * *

target: HIV-1 Protease (Human immunodeficiency virus type 1 group M subtype B); construct: HIV-1 Protease; experiment: biochemical; conditions: read-out: Fluorescence Assay IC50 (converted)
The label fulfilled is reserved for IC50 strictly under 2 nM; not fulfilled covers values equal to or above it.

Past entries and their recorded results:
compound | assigned class
CC(=O)N[C@H](CS(=O)(=O)c1ccc2ccccc2c1)C(=O)N[C@@H](Cc1ccccc1)[C@H](O)CN1C[C@H]2CCS[C@H]2C[C@H]1C(=O)NC(C)(C)C [Example 28] | not fulfilled
C[C@H]1[C@H](OC(=O)N[C@@H](CSc2ccccc2)[C@H](O)CN2C[C@H]3CCS[C@H]3C[C@H]2C(=O)NC(C)(C)C)CCS1(=O)=O [34-Fraction B] | not fulfilled

Lab log: compare recorded IC50 with 2 nM; is it strictly lower for CC(C)(C)NC(=O)[C@@H]1C[C@@H]2SCC[C@@H]2CN1C[C@@H](O)[C@H](Cc1ccccc1)NC(=O)[C@@H](CS(=O)(=O)c1ccc(F)cc1)NC(=O)C(F)(F)F [Example 19C] ?
fulfilled

Lab log: compare recorded IC50 with 2 nM; is it strictly lower for C[C@H]1OCC[C@H]1OC(=O)N[C@@H](CSc1ccccc1)[C@H](O)CN1C[C@H]2CCS[C@H]2C[C@H]1C(=O)NC(C)(C)C [13B-17 mg sample] ?
not fulfilled

Lab log: compare recorded IC50 with 2 nM; is it strictly lower for CC(C)[C@@H]1[C@H](OC(=O)N[C@@H](CSc2ccccc2)[C@H](O)CN2C[C@H]3CCS[C@H]3C[C@H]2C(=O)NC(C)(C)C)CCS1(=O)=O [10B-52 mg sample] ?
fulfilled

Lab log: compare recorded IC50 with 2 nM; is it strictly lower for C[C@@H]1[C@H](OC(=O)N[C@@H](CSc2ccccc2)[C@H](O)CN2C[C@H]3CCS[C@H]3C[C@H]2C(=O)NC(C)(C)C)CCS1(=O)=O [Example 38D] ?
not fulfilled

Lab log: compare recorded IC50 with 2 nM; is it strictly lower for CC(C)(C)NC(=O)[C@@H]1C[C@@H]2SCC[C@@H]2CN1C[C@@H](O)[C@H](CSc1ccccc1)NC(=O)[C@@H](CS(=O)(=O)c1ccc(F)cc1)NC(=O)C(F)(F)F [Example 29] ?
not fulfilled

Lab log: compare recorded IC50 with 2 nM; is it strictly lower for C[C@@H]1[C@@H](OC(=O)N[C@@H](CSc2ccccc2)[C@H](O)CN2C[C@H]3CCS[C@H]3C[C@H]2C(=O)NC(C)(C)C)CCS1(=O)=O [34-Fraction A] ?
not fulfilled

Lab log: compare recorded IC50 with 2 nM; is it strictly lower for C[C@H]1[C@@H](OC(=O)N[C@@H](CSc2ccccc2)[C@H](O)CN2C[C@H]3CCS[C@H]3C[C@H]2C(=O)NC(C)(C)C)CCS1(=O)=O [Example 37D] ?
fulfilled

* * *

IC50 reference
target: HIV-1 Protease (Human immunodeficiency virus type 1 group M subtype B); construct: HIV-1 Protease; experiment: biochemical; settings: concentration inhibiting 50% of the enzyme; * = calculated average with n number of assays; read-out: Fluorescence Assay IC50 (converted)

compound | study system | endpoint value
CC(C)(C)NC(=O)[C@@H]1C[C@@H]2SCC[C@@H]2CN1C[C@@H](O)[C@H](Cc1ccccc1)NC(=O)[C@@H](CS(=O)(=O)c1ccc(F)cc1)NS(C)(=O)=O [Example 19B] | HIV-1 Protease (Human immunodeficiency virus type 1 group M subtype B) | 0.224 nM
CC(=O)N[C@H](CS(=O)(=O)c1ccc(F)cc1)C(=O)N[C@@H](CSc1ccccc1)[C@H](O)CN1C[C@H]2CCS[C@H]2C[C@H]1C(=O)NC(C)(C)C [Example 21B] | HIV-1 Protease (Human immunodeficiency virus type 1 group M subtype B) | 1.83 nM
CC(C)(C)NC(=O)[C@@H]1C[C@@H]2SCC[C@@H]2CN1C[C@@H](O)[C@H](CSc1ccccc1)NC(=O)O[C@H]1CCS(=O)(=O)C1 [11C-6 mg sample] | HIV-1 Protease (Human immunodeficiency virus type 1 group M subtype B) | 2 nM

Enter reported IC50 observed with HIV-1 Protease (Human immunodeficiency virus type 1 group M subtype B) for CC(C)[C@@H]1SCC[C@@H]1OC(=O)N[C@@H](CSc1ccccc1)[C@H](O)CN1C[C@H]2CCS[C@H]2C[C@H]1C(=O)NC(C)(C)C [9B-23 mg sample]
2.62 nM

Enter reported IC50 observed with HIV-1 Protease (Human immunodeficiency virus type 1 group M subtype B) for CC(C)(C)NC(=O)[C@@H]1C[C@@H]2SCC[C@@H]2CN1C[C@@H](O)[C@H](CSc1ccccc1)NC(=O)O[C@@H]1CCS(=O)(=O)C1 [11C-11 mg sample]
1.52 nM

Enter reported IC50 observed with HIV-1 Protease (Human immunodeficiency virus type 1 group M subtype B) for CC(=O)N[C@H](CCS(C)(=O)=O)C(=O)N[C@@H](CSc1ccccc1)[C@H](O)CN1C[C@H]2CCS[C@H]2C[C@H]1C(=O)NC(C)(C)C [Example 15B]
13.5 nM
